The reported numbers originate from patent US11214572B2.

Molecular target: PI3Kγ (Homo sapiens, UniProt P48736)
Sequence (P48736 whole entry, canonical isoform): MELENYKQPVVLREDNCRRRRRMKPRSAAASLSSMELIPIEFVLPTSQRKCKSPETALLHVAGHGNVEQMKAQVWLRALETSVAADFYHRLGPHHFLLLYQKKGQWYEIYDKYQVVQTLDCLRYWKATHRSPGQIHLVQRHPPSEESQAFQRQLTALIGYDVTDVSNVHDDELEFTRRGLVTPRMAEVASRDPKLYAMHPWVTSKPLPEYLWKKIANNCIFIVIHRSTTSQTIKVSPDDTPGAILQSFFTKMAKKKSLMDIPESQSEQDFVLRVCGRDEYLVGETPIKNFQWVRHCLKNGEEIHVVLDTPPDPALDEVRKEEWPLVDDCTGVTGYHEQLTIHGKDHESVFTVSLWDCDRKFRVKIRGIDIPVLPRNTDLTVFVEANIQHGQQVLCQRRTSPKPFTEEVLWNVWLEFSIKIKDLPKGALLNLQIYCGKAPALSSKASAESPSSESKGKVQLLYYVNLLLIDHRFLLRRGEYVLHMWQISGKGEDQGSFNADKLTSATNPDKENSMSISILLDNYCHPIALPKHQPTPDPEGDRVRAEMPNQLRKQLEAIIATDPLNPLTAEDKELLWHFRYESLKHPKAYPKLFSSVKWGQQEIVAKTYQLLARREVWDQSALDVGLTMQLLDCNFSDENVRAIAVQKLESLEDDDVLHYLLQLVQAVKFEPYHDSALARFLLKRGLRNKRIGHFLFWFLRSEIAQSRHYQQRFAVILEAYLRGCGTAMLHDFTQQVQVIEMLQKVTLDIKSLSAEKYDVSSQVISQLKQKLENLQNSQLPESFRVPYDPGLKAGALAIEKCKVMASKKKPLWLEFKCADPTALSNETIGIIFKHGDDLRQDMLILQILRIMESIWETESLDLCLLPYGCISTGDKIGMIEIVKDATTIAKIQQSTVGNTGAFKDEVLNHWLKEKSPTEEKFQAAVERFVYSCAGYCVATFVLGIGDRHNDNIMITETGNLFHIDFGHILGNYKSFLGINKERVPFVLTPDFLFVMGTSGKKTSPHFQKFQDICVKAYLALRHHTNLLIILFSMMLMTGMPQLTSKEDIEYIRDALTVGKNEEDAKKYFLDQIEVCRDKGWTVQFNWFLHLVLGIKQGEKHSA
Experiment: PI3K kinase activity, γ isoform
Type: biochemical
In this section we review reported IC50 values for a set of molecules.

{"columns": ["Molecule", "IC50 / nM"],
 "data": [
  ["Cc1c(CN2CCN(S(C)(=O)=O)CC2)cc2c(N3CCOCC3)nc(-c3cnc(NC(=O)Nc4ccc(F)cc4)cc3C(F)(F)F)nn12 [Compound P-23]", 47.1],
  ["Cc1c(CN2CCN(S(C)(=O)=O)CC2)cc2c(N3CCOCC3)nc(-c3cnc(NC(=O)NC4CC4)cc3C(F)(F)F)nn12 [Compound P-20]", 36.6],
  ["Cc1c(CNCCCN(C)C)cc2c(N3CCOCC3)nc(-c3cnc(N)cc3C(F)(F)F)nn12 [Compound P-2]", 37600],
  ["Cc1c(CN2CCN(S(C)(=O)=O)CC2)cc2c(N3CCOCC3)nc(-c3cnc(N)cc3C(F)(F)F)nn12 [Compound P-9]", 283]
]}

----------
Assay: Preliminary pharmacokinetic test, intravenous injection
Type: in vivo, SD rats
Settings: male, SD, rat, plasma, iv, 5 mg/kg, rats, intravenous injection 5 mg/kg, individual animal; tested as monomesylate
Property: AUC(0-inf); scope: individual molecules
Measured Property: AUC(0-inf) (ng·h/mL)

{"columns": ["Molecule", "Measured Property", "Quantitative Result"],
 "data": [
  ["COC(=O)Nc1cc(C(F)(F)F)c(-c2nc(N3CCOCC3)c3cc(CN4CCN(S(C)(=O)=O)CC4)c(C)n3n2)cn1", "AUC(0-inf)", 4190],
  ["COC(=O)Nc1cc(C(F)(F)F)c(-c2nc(N3CCOCC3)c3cc(CN4CCN(S(C)(=O)=O)CC4)cn3n2)cn1 [CYH33, reference compound]", "AUC(0-inf)", 2850]
]}

----------
# Lookup of reported MRT keyed by entry
Test: Preliminary pharmacokinetic test, intravenous injection
Format: in vivo, SD rats
Details: male, SD, rat, plasma, iv, 5 mg/kg, rats, intravenous injection 5 mg/kg, individual animal; tested as monomesylate; read-out: MRT

{"columns": ["Compound", "MRT [h]"],
 "data": [
  ["COC(=O)Nc1cc(C(F)(F)F)c(-c2nc(N3CCOCC3)c3cc(CN4CCN(S(C)(=O)=O)CC4)cn3n2)cn1 [CYH33, reference compound]", 1.1],
  ["COC(=O)Nc1cc(C(F)(F)F)c(-c2nc(N3CCOCC3)c3cc(CN4CCN(S(C)(=O)=O)CC4)c(C)n3n2)cn1", 3.53]
]}

----------
Test: Preliminary pharmacokinetic test, intravenous injection
Format: in vivo, SD rats
Details: male, SD, rat, plasma, iv, 5 mg/kg, rats, intravenous injection 5 mg/kg, Mean; tested as monomesylate
Measured Property: AUC(0-inf) (ng·h/mL)

{"columns": ["Smiles Repr", "Unit Annotation", "Quantitative Result"],
 "data": [
  ["COC(=O)Nc1cc(C(F)(F)F)c(-c2nc(N3CCOCC3)c3cc(CN4CCN(S(C)(=O)=O)CC4)c(C)n3n2)cn1", "ng·h/mL", 3240]
]}

----------
Target: PI3Kβ (Homo sapiens)
Sequence (P42338 whole entry, canonical isoform): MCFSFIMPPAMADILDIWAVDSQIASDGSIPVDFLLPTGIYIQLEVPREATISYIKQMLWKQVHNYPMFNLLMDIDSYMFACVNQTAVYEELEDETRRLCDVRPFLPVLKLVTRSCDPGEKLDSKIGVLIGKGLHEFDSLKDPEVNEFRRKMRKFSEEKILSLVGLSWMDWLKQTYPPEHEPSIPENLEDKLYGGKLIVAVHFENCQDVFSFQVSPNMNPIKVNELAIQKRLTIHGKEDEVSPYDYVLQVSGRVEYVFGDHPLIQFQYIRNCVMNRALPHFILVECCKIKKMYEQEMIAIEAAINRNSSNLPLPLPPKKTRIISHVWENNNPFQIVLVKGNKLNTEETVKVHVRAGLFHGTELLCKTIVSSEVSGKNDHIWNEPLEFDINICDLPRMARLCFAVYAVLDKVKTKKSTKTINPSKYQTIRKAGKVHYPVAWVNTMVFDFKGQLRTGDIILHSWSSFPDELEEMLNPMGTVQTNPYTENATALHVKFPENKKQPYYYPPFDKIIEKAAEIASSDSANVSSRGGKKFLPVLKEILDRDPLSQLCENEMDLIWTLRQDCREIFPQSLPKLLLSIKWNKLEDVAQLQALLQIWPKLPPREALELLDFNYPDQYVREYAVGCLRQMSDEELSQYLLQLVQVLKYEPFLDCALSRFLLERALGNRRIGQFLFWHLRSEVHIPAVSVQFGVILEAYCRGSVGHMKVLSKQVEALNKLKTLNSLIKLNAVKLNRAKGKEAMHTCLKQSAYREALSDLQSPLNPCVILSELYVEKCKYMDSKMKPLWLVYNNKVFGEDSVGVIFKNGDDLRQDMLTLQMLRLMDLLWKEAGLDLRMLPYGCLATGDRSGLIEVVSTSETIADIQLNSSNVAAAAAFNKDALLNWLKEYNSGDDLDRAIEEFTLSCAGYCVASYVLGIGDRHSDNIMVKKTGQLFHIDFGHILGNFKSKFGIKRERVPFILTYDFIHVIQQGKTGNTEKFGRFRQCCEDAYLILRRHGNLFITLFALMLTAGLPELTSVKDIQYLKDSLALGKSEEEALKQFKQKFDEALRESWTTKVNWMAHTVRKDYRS
Sequence (P27986 whole entry partner, canonical isoform): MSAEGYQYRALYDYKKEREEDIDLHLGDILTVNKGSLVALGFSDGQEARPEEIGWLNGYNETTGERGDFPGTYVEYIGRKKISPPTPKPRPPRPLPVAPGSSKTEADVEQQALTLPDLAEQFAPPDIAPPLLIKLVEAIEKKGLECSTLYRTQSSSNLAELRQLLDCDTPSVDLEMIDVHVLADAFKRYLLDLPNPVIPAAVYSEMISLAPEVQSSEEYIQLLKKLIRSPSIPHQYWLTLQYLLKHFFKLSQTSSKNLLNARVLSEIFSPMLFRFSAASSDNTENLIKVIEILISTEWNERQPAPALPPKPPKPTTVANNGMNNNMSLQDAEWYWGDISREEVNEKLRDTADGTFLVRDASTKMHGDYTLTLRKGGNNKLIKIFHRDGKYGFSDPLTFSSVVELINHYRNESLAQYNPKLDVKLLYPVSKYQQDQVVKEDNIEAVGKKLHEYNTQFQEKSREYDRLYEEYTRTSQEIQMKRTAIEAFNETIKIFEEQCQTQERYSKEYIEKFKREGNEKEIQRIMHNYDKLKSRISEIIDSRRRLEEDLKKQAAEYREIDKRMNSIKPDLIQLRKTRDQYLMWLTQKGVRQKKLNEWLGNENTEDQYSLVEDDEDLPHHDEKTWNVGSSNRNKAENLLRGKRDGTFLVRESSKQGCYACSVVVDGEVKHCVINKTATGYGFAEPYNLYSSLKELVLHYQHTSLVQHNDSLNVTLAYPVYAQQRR
Assay: PI3K kinase activity, β isoform;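 also: kinase reaction containing 1% DMSO, read as an emission ratio, with inhibition scaled between the 0% and 100% control ratios. IC50 values come from a ten-point fourfold dilution series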
Settings: read-out: IH (%) @ 100 nM, β
Below, each entry is listed with its recorded inhibition at 0.1 µM.
Measured Property: inhibition at 0.1 µM (%)

{"columns": ["Compound", "Quantitative Result"],
 "data": [
  ["CCNC(=O)Nc1cc(C(F)(F)F)c(-c2nc(N3CCOCC3)c3cc(CN4CCN(S(C)(=O)=O)CC4)c(C)n3n2)cn1 [Compound P-21]", 46.3],
  ["COC(=O)Nc1cc(C(F)(F)F)c(-c2nc(N3CCOCC3)c3cc(CN4CCN(S(C)(=O)=O)CC4)c(C)n3n2)cn1 [Compound P-17]", 16],
  ["COCCCNCc1cc2c(N3CCOCC3)nc(-c3cnc(N)cc3C(F)(F)F)nn2c1C [Compound P-3]", -0.12],
  ["Cc1c(CN2CCN(S(C)(=O)=O)CC2)cc2c(N3CCOCC3)nc(-c3cnc(N)cc3C(F)(F)F)nn12 [Compound P-9]", 12.8],
  ["CS(=O)(=O)N1CCN(Cc2cc3nc(-c4cccc5[nH]ncc45)nc(N4CCOCC4)c3s2)CC1 [GDC0941, reference compound]", 21.1],
  ["Cc1c(CN2CCN(C(=O)C(C)(C)O)CC2)cc2c(N3CCOCC3)nc(-c3cnc(N)cc3C(F)(F)F)nn12 [Compound P-13]", 2.34],
  ["Cc1c(CN2CCC(C(C)(C)O)CC2)cc2c(N3CCOCC3)nc(-c3cnc(N)cc3C(F)(F)F)nn12 [Compound P-5]", 14.9]
]}

----------
Target: PI3Kγ (Homo sapiens, UniProt P48736)
Assay: PI3K kinase activity, γ isoform;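 also: kinase reaction run in 384-well plates, with inhibition normalised between the 0% and 100% reference reactions. IC50 derived from a ten-point, fourfold serial dilution series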
Format: biochemical
Details: compound 100 nM; read-out: IH (%) @ 100 nM, γ
This listing pairs compounds with measured inhibition at 0.1 µM.
Measured Property: inhibition at 0.1 µM (%)

{"columns": ["Smiles Repr", "Tgt", "Measured Property", "Quantitative Result"],
 "data": [
  ["Cc1c(CN2CCN(S(C)(=O)=O)CC2)cc2c(N3CCOCC3)nc(-c3cnc(NC(=O)Nc4ccc(F)cc4)cc3C(F)(F)F)nn12", "PI3Kγ (Homo sapiens, UniProt P48736)", "inhibition at 0.1 µM", 67],
  ["Cc1c(CN2CCN(C(=O)[C@H](C)O)CC2)cc2c(N3CCOCC3)nc(-c3cnc(N)cc3C(F)(F)F)nn12", "PI3Kγ (Homo sapiens, UniProt P48736)", "inhibition at 0.1 µM", 6.83],
  ["CCNC(=O)Nc1cc(C(F)(F)F)c(-c2nc(N3CCOCC3)c3cc(CN4CCN(S(C)(=O)=O)CC4)c(C)n3n2)cn1", "PI3Kγ (Homo sapiens, UniProt P48736)", "inhibition at 0.1 µM", 74.1],
  ["Cc1c(CN2CCC(C(C)(C)O)CC2)cc2c(N3CCOCC3)nc(-c3cnc(N)cc3C(F)(F)F)nn12", "PI3Kγ (Homo sapiens, UniProt P48736)", "inhibition at 0.1 µM", -2.33],
  ["CS(=O)(=O)N1CCN(Cc2cc3c(N4CCOCC4)nc(-c4cnc(N)cc4C(F)(F)F)nn3c2Cl)CC1", "PI3Kγ (Homo sapiens, UniProt P48736)", "inhibition at 0.1 µM", 19.4],
  ["Cc1c(CN2CCC(N(C)C)CC2)cc2c(N3CCOCC3)nc(-c3cnc(N)cc3C(F)(F)F)nn12", "PI3Kγ (Homo sapiens, UniProt P48736)", "inhibition at 0.1 µM", -7.96],
  ["CCN1CCN(Cc2cc3c(N4CCOCC4)nc(-c4cnc(N)cc4C(F)(F)F)nn3c2C)CC1", "PI3Kγ (Homo sapiens, UniProt P48736)", "inhibition at 0.1 µM", -4.8]
]}

----------
Assay: Preliminary pharmacokinetic test, intravenous injection
Type: in vivo, SD rats
Conditions: male, SD, rat, plasma, iv, 5 mg/kg, rats, intravenous injection 5 mg/kg, Mean; tested as monomesylate
Measured Property: half-life (h)

{"columns": ["Smiles Repr", "Measured Property", "Quantitative Result"],
 "data": [
  ["COC(=O)Nc1cc(C(F)(F)F)c(-c2nc(N3CCOCC3)c3cc(CN4CCN(S(C)(=O)=O)CC4)c(C)n3n2)cn1", "half-life", 2.1]
]}

----------
Biological target: PI3Kα (Homo sapiens)
Sequence (P42336 whole entry, one chain of several, canonical isoform): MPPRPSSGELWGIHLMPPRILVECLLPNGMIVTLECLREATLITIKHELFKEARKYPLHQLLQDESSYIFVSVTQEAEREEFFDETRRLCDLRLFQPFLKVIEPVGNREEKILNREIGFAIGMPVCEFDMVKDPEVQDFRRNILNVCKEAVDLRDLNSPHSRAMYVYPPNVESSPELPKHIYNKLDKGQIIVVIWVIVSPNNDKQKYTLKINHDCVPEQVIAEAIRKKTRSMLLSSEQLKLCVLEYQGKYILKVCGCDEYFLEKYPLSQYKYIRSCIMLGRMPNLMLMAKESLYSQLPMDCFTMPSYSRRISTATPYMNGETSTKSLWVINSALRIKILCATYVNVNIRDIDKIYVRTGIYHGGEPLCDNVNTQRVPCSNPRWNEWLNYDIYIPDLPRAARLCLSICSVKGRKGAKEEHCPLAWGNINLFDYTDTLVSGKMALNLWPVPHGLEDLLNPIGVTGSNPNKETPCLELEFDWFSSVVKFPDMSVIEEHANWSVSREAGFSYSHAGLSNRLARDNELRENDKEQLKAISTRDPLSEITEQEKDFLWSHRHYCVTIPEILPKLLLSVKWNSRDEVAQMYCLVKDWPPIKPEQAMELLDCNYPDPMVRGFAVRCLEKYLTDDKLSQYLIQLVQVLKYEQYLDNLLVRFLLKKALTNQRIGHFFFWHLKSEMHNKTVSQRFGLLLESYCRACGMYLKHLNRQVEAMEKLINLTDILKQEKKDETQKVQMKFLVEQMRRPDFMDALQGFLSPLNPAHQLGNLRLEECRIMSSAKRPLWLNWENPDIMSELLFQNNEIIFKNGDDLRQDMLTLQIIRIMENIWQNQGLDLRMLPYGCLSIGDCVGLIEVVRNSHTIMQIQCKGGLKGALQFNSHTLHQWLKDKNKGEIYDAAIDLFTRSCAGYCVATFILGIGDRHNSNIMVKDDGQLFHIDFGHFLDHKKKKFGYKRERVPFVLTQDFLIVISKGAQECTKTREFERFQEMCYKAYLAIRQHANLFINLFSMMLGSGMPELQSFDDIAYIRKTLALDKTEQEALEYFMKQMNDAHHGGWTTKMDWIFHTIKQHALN
Assay: PI3K kinase activity, α isoform
Conditions: read-out: IH (%) @ 20 nM, α
Lab note: anything with inhibition at 0.02 µM at or over 70% counts as YES; the rest go in NO.

{"columns": ["Molecule", "Cat"],
 "data": [
  ["COC(=O)Nc1cc(C(F)(F)F)c(-c2nc(N3CCOCC3)c3cc(CN4CCN(S(C)(=O)=O)CC4)c(C)n3n2)cn1 [Compound P-17]", "NO"],
  ["Cc1c(CN2CCN(S(C)(=O)=O)CC2)cc2c(N3CCOC[C@@H]3C)nc(-c3cnc(N)cc3C(F)(F)F)nn12 [Compound P-10]", "YES"],
  ["Cc1c(CNCCCN(C)C)cc2c(N3CCOCC3)nc(-c3cnc(N)cc3C(F)(F)F)nn12 [Compound P-2]", "NO"],
  ["Cc1c(CN2CCN(S(C)(=O)=O)CC2)cc2c(N3CCOCC3)nc(-c3cnc(NC(=O)NC4CC4)cc3C(F)(F)F)nn12 [Compound P-20]", "YES"],
  ["Cc1c(CN2CCN(C(=O)[C@H](C)O)CC2)cc2c(N3CCOCC3)nc(-c3cnc(N)cc3C(F)(F)F)nn12 [Compound P-14]", "NO"]
]}

----------
Target: PI3Kδ (Homo sapiens, UniProt O00329)
Sequence (O00329 whole entry, one chain of several, canonical isoform): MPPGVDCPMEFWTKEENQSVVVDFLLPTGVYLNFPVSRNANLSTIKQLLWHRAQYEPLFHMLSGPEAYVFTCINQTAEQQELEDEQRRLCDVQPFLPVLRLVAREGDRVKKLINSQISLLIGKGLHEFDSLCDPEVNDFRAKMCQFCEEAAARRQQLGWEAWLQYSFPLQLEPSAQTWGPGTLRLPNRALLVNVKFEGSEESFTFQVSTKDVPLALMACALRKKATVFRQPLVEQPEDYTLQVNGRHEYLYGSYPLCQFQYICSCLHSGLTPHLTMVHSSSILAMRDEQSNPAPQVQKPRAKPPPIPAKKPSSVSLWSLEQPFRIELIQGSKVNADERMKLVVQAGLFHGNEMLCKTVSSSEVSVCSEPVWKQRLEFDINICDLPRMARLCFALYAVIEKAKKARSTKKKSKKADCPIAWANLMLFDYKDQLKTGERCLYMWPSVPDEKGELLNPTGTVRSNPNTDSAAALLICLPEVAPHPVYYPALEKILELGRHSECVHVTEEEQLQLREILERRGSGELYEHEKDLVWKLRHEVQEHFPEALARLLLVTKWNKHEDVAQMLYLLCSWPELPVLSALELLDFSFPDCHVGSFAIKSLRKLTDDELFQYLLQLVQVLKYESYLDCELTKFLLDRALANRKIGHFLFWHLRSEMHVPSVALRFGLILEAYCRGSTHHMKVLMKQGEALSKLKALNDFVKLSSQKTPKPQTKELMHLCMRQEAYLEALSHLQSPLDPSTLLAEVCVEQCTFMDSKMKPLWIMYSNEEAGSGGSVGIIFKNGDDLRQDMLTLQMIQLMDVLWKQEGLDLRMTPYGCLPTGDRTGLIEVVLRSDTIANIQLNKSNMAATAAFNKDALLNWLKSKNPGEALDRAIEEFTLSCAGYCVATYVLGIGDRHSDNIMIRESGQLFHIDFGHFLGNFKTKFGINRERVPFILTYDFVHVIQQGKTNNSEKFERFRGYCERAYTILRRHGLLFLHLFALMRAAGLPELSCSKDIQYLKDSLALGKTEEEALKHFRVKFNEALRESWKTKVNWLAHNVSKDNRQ
Assay: PI3K kinase activity, δ isoform
pIC50: −log10 of the molar value.
Listed here are molecules together with their documented pIC50.
Measured Property: pIC50

{"columns": ["Smiles Repr", "Measured Property", "Quantitative Result"],
 "data": [
  ["CS(=O)(=O)N1CCN(Cc2cc3c(N4CCOCC4)nc(-c4cnc(N)cc4C(F)(F)F)nn3c2Cl)CC1", "pIC50", 7.55],
  ["CCN1CCN(Cc2cc3c(N4CCOCC4)nc(-c4cnc(N)cc4C(F)(F)F)nn3c2C)CC1", "pIC50", 7.45],
  ["Cc1c(CN2CCN(S(C)(=O)=O)CC2)cc2c(N3CCOCC3)nc(-c3cnc(N)cc3C(F)(F)F)nn12", "pIC50", 7.63],
  ["Cc1c(CN2CCN(S(C)(=O)=O)CC2)cc2c(N3CCOCC3)nc(-c3cnc(NC(=O)NC(C)C)cc3C(F)(F)F)nn12", "pIC50", 7.53]
]}
